Tgt: full length SGK1 (Homo sapiens)
Construct: 125 μM full length SGK1 (Life Technologies Part #PR7358A); purchased Life Technologies PR7358A
Sequence (O00141 1-431): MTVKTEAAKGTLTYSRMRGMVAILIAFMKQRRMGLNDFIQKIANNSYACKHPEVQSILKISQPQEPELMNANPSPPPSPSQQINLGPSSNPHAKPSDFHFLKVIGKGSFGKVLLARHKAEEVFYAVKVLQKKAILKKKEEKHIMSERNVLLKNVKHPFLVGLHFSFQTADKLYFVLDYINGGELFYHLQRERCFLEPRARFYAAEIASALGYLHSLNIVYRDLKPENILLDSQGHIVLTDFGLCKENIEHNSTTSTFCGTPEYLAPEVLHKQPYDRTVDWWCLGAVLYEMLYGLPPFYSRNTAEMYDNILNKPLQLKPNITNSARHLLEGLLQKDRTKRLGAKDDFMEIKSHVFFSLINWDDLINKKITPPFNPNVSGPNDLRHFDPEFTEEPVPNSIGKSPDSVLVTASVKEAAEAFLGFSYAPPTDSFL
Protocol: SGK1 inhibition Assay A (Caliper LabChip electrophoretic separation of fluorescent peptide substrate and phosphorylated product)
Format: biochemical
Run parameters: Assay A; 20 μM ATP, 40 min incubation; read-out: SGK1 IC50
Counter-ions that a name gives are not always drawn.
Value kind: pIC50
pIC50 is defined as minus the log10 of a concentration measured in mol/L.

> print(dat)
                                   compound  value.kind  reported.result
1  CC(=O)N1CC=C(c2cc(N3CCC[C@@H](NC(=O)c4ccc(-c5ccncc5)cc4)C3)c3c(N)ncnn23)C1       pIC50             7.59
2  Cc1nc(C)c(C(=O)N[C@@H]2CCCN(c3cc(-c4ccnc(C(F)F)c4)n4ncnc(N)c34)C2)s1       pIC50             7.59
3  CC(=O)N1CC=C(c2cc(N3CCC[C@@H](NC(=O)c4sc(C)nc4OC4CCN(C)CC4)C3)c3c(N)ncnn23)C1       pIC50             7.62
4  Nc1ncnn2c(-c3cnc4ncnn4c3)cc(N3CCC[C@@H](NC(=O)c4ccc(Cl)s4)C3)c12 [Example 246, TFA]       pIC50             7.89
5  CC(=O)N1CC=C(c2cc(N3CCC[C@@H](NC(=O)c4cccc(N5CCC(C)(O)CC5)n4)C3)c3c(N)ncnn23)C1       pIC50             7.14
6  CC(=O)N1CC=C(c2cc(N3CCC[C@@H](NC(=O)c4csc(C)c4)C3)c3c(N)ncnn23)C1       pIC50             8.30
7  CC(C)Cn1cc(-c2cc(N3CCC[C@@H](NC(=O)c4ccc(C(F)F)s4)C3)c3c(N)ncnn23)ccc1=O       pIC50             7.36
8  CC(=O)Nc1cccc(C(=O)N[C@@H]2CCCN(c3cc(C4=CCN(C(C)=O)C4)n4ncnc(N)c34)C2)c1       pIC50             7.72

In: Give the reported pIC50 for this compound. `NC(=O)c1ccc(-c2cc(N3CCC[C@@H](NC(=O)c4sc(C(F)F)cc4OC4CCNCC4)C3)c3c(N)ncnn23)cc1F`
Out: 8.70

In: For the compound CC(=O)N1CC=C(c2cc(N3CCC[C@@H](NC(=O)c4sc(C(F)F)cc4C4CCN(C)C4)C3)c3c(N)ncnn23)C1 (some centres unmarked) [Example 398] , give its measured pIC50 value.
Out: 6.61

In: Look up and state reported pIC50 for `Nc1ncnn2c(C3=CCC(F)(F)CC3)cc(N3CCC[C@@H](NC(=O)c4ccc(Cl)s4)C3)c12`
Out: 7.37

In: State its pIC50 for this compound: `COc1nc(C)c(C(=O)N[C@@H]2CCCN(c3cc(C4=CCN(C(C)=O)C4)n4ncnc(N)c34)C2)s1`
Out: 7.35

In: Give the value of pIC50 reported for the following: `CC(=O)N1CC=C(c2cc(N3CCC[C@@H](NC(=O)c4sc(Cl)cc4OC[C@H](C)N)C3)c3c(N)ncnn23)C1`
Out: 8.52

In: Specify reported pIC50 for the compound shown: `N#Cc1ccc(-c2cc(N3CCC[C@@H](NC(=O)c4sc(Cl)cc4OCC4CCNCC4)C3)c3c(N)ncnn23)cn1`
Out: 9.05
